- Species on record: Cavia porcellus
- assay-explanation: Inhibitory activity against Leukotriene C4 induced contractions
- Assay type: functional
recorded-endpoint: pIC50
Bear in mind: pIC50 is minus log10 of a mol/L concentration; give just that figure.

Query: # return recorded pIC50 for entry CN(O)C(=O)Cc1ccc(OCc2ccccc2)cc1
Response: 5.38

---

Answer each item with its documented inhibition.
- test-system: Cyclooxygenase (Rattus norvegicus) (UniProt P35355+Q63921)
- assay-explanation: Inhibition of Prostaglandin G/H synthase in rat polymorphonuclear leukocytes
- Type: cell-based
- Parameters: concentration or dose not given beside the values
- measurement-context: concentration not given here
// note: answer is a bare numeric in %

Query: Look up and report inhibition, with Cyclooxygenase (Rattus norvegicus) (UniProt P35355+Q63921) as system, for CCOC(=O)CCCN(O)C(=O)CCCc1ccccc1
Response: 44

Query: Look up and report inhibition, with Cyclooxygenase (Rattus norvegicus) (UniProt P35355+Q63921) as system, for O=C(Cc1ccc(OCc2ccccc2)cc1)NO
Response: 16

Query: Look up and report inhibition, with Cyclooxygenase (Rattus norvegicus) (UniProt P35355+Q63921) as system, for COc1ccc(CC(=O)N(O)CCc2ccccc2)cc1
Response: 48

Query: Look up and report inhibition, with Cyclooxygenase (Rattus norvegicus) (UniProt P35355+Q63921) as system, for O=C(CCCCc1ccccc1)N(O)Cc1ccccc1
Response: 50

Query: Look up and report inhibition, with Cyclooxygenase (Rattus norvegicus) (UniProt P35355+Q63921) as system, for O=C(CCCc1ccccc1)N(O)CCc1ccccc1
Response: 44
